Task for the reader: assign each of the following binders its reported pIC50.
STUDY_SYSTEM: T1, Human CXCR2 (human, UniProt P25025 1-360)
T1 construct: Some cell lines carry an N-terminal 3xHA tag; also called hCXCR2; huCXCR2
T1 sequence: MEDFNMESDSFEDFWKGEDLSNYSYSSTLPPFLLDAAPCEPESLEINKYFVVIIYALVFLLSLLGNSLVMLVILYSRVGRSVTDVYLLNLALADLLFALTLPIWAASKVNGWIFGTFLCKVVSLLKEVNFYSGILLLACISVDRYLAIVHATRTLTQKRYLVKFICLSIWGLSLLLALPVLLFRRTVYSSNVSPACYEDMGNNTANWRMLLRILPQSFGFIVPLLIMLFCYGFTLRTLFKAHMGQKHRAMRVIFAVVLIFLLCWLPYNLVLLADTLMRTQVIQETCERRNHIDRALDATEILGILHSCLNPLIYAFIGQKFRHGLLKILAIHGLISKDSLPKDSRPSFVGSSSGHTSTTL
PROCEDURE_SUMMARY: FACS competition vs 3 nM FMAT-Blue Gro-α
Experimental: Multivalent anti-CXCR2Nanobodies were titrated against 3 nM FMAT-Blue-labeled Gro-α in the FACS ligand competition assay on human and cynomolgus CXCR2 (Table 14). On human CXCR2, blocking potencies range between double digit nM and sub-nM whereas on cynomolgus CXCR2, they range between single and double digit nM.
Give bare numbers, as −log10 of the molar value.

BINDER: CXCR20023 (bispecific antibody, Two different VHH joined by a GlySer linker; also called 163D2-35GS-163E3; not shown: C-terminal c-myc tag and His6 tag coded by pAX100) EVQLVESGGGLVQAGGSLRLSCAASGRTFSDYAMGWFRQAPGKEREFVAAITWNGGRVFYTASVKGRFTISRDNAKNTMYLQMNSLKPEDTAVYYCAADKDRRTDYLGHPVAYWGQGTQVTVSSGGGGSGGGGSGGGGSGGGGSGGGGSGGGGSGGGGSEVQLVESGGGLVQPGGSLRLSCVASGRIFSSNAMGWFRQAPGKEREFVAAITWRSGGSAYYADSAKGRFTISRDNAKNTVYLQMNSLKPEDTAVYYCAAGGSSWLSFPPDYWGQGTQVTVSS
pIC50: 8.37
//
BINDER: CXCR20036 (other, Biparatopic: two VHH joined by a GlySer linker; also called 54B12-35GS-163D2; 54B12-163D2; not shown: C-terminal c-myc tag and His6 tag coded by pAX100) EVQLVESGGGLVQAGGSLTLSCAVSGSTFRINTMGWYRRAPGKQRELVAARDRGGYINYVDSVKGRFTVSRDNAKPTMYLQMNSLKPEDTAVYYCHAGTQDRTGRNFDRWGQGTQVTVSSGGGGSGGGGSGGGGSGGGGSGGGGSGGGGSGGGGSEVQLVESGGGLVQAGGSLRLSCAASGRTFSDYAMGWFRQAPGKEREFVAAITWNGGRVFYTASVKGRFTISRDNAKNTMYLQMNSLKPEDTAVYYCAADKDRRTDYLGHPVAYWGQGTQVTVSS
pIC50: 9.15
//
BINDER: CXCR20030 (other, Biparatopic: two VHH joined by a GlySer linker; also called 163D2-35GS-54B12; 163D2-54B12; not shown: C-terminal c-myc tag and His6 tag coded by pAX100) EVQLVESGGGLVQAGGSLRLSCAASGRTFSDYAMGWFRQAPGKEREFVAAITWNGGRVFYTASVKGRFTISRDNAKNTMYLQMNSLKPEDTAVYYCAADKDRRTDYLGHPVAYWGQGTQVTVSSGGGGSGGGGSGGGGSGGGGSGGGGSGGGGSGGGGSEVQLVESGGGLVQAGGSLTLSCAVSGSTFRINTMGWYRRAPGKQRELVAARDRGGYINYVDSVKGRFTVSRDNAKPTMYLQMNSLKPEDTAVYYCHAGTQDRTGRNFDRWGQGTQVTVSS
pIC50: 9.10
//
BINDER: CXCR20021 (bispecific antibody, Biparatopic: two VHH joined by a GlySer linker; also called 127D1-35GS-163E3; 127D1-163E3; not shown: C-terminal c-myc tag and His6 tag coded by pAX100) EVQLVESGGGLVQAGESLRLSCAASGSTFDFKVMGWYRQPPGKQREGVAAIRLSGNMHYAESVKGRFTISKANAKNTVYLQMNSLRPEDTAVYYCKVNIRGQDYWGQGTQVTVSSGGGGSGGGGSGGGGSGGGGSGGGGSGGGGSGGGGSEVQLVESGGGLVQPGGSLRLSCVASGRIFSSNAMGWFRQAPGKEREFVAAITWRSGGSAYYADSAKGRFTISRDNAKNTVYLQMNSLKPEDTAVYYCAAGGSSWLSFPPDYWGQGTQVTVSS
pIC50: 8.96

Provide pIC50 values for the following items, in order.
1. CXCR20031 (bispecific antibody, Biparatopic: two VHH joined by a GlySer linker; also called 2B2-35GS-163E3; not shown: C-terminal c-myc tag and His6 tag coded by pAX100) EVQLVESGGELVQPGGSLRLSCAASGSILTINAMGWYRQAPGKQRELVVRRTRGGSTTYQDSVKGRFTISADIAKKTMYLQMNSLKPEDTAVYYCMLDDRGGVYWGQGTQVTVSSGGGGSGGGGSGGGGSGGGGSGGGGSGGGGSGGGGSEVQLVESGGGLVQPGGSLRLSCVASGRIFSSNAMGWFRQAPGKEREFVAAITWRSGGSAYYADSAKGRFTISRDNAKNTVYLQMNSLKPEDTAVYYCAAGGSSWLSFPPDYWGQGTQVTVSS
2. CXCR20011 (VHH, Bivalent: two VHH joined by a GlySer linker; also called 97A9-35GS-97A9; not shown: C-terminal c-myc tag and His6 tag coded by pAX100) EVQLVESGGGLVQPGGSLRLSCVASGSIVRINTMGWYRQTPGKQRELVADITSGGNINYIDAVKGRFTISRDNTKNTVYLQMNSLKPEDTAVYYCNAEIVVLVGVWTQRARTGNYWGQGTQVTVSSGGGGSGGGGSGGGGSGGGGSGGGGSGGGGSGGGGSEVQLVESGGGLVQPGGSLRLSCVASGSIVRINTMGWYRQTPGKQRELVADITSGGNINYIDAVKGRFTISRDNTKNTVYLQMNSLKPEDTAVYYCNAEIVVLVGVWTQRARTGNYWGQGTQVTVSS
3. CXCR20028 (other, Biparatopic: two VHH joined by a GlySer linker; also called 97A9-35GS-54B12; 97A9-54B12; not shown: C-terminal c-myc tag and His6 tag coded by pAX100) EVQLVESGGGLVQPGGSLRLSCVASGSIVRINTMGWYRQTPGKQRELVADITSGGNINYIDAVKGRFTISRDNTKNTVYLQMNSLKPEDTAVYYCNAEIVVLVGVWTQRARTGNYWGQGTQVTVSSGGGGSGGGGSGGGGSGGGGSGGGGSGGGGSGGGGSEVQLVESGGGLVQAGGSLTLSCAVSGSTFRINTMGWYRRAPGKQRELVAARDRGGYINYVDSVKGRFTVSRDNAKPTMYLQMNSLKPEDTAVYYCHAGTQDRTGRNFDRWGQGTQVTVSS
4. CXCR20020 (bispecific antibody, Biparatopic: two VHH joined by a GlySer linker; also called 127D1-35GS-163D2; 127D1-163D2; not shown: C-terminal c-myc tag and His6 tag coded by pAX100) EVQLVESGGGLVQAGESLRLSCAASGSTFDFKVMGWYRQPPGKQREGVAAIRLSGNMHYAESVKGRFTISKANAKNTVYLQMNSLRPEDTAVYYCKVNIRGQDYWGQGTQVTVSSGGGGSGGGGSGGGGSGGGGSGGGGSGGGGSGGGGSEVQLVESGGGLVQAGGSLRLSCAASGRTFSDYAMGWFRQAPGKEREFVAAITWNGGRVFYTASVKGRFTISRDNAKNTMYLQMNSLKPEDTAVYYCAADKDRRTDYLGHPVAYWGQGTQVTVSS

Reply:
1. 9.31
2. 7.45
3. 8.79
4. 9.00

Task item: For the binder CXCR20013 (bispecific antibody, Biparatopic: two VHH joined by a GlySer linker; also called 2B2-35GS-97A9; not shown: C-terminal c-myc tag and His6 tag coded by pAX100) EVQLVESGGELVQPGGSLRLSCAASGSILTINAMGWYRQAPGKQRELVVRRTRGGSTTYQDSVKGRFTISADIAKKTMYLQMNSLKPEDTAVYYCMLDDRGGVYWGQGTQVTVSSGGGGSGGGGSGGGGSGGGGSGGGGSGGGGSGGGGSEVQLVESGGGLVQPGGSLRLSCVASGSIVRINTMGWYRQTPGKQRELVADITSGGNINYIDAVKGRFTISRDNTKNTVYLQMNSLKPEDTAVYYCNAEIVVLVGVWTQRARTGNYWGQGTQVTVSS , what pIC50 is on record?
Reply: 9.05
